# method summary: in vivo
# condition summary: female, athymic nu/nu, mouse, iv
assay endpoint: MTD (mg/kg)
Give a bare numeral; the unit mg/kg is implied.

// CC[C@@H]1C(=O)N(C)c2cnc(Nc3ccc(C(=O)NC4CCN(C)CC4)cc3OC)nc2N1C1CCCC1 [BI-2536] : MTD value = 100

* * *

A collection of molecules and their measured solubility
# method summary: physchem
# Type: physicochemical
# condition summary: water
Express your answer in µg/mL, writing the number without its unit.

get_value(item= CC[C@@H]1C(=O)N(C)c2cnc(Nc3ccc(C(=O)NC4CCN(C)CC4)cc3OC)nc2N1C1CCCC1 , readout=solubility) returns 500

Looking up O=C(NOC[C@H](O)CO)c1ccc(F)c(F)c1Nc1ccc(I)cc1F , I see its solubility listed as 100
